Each recorded value in this set is attributed to patent US20240041042A1.

# Tested on: Polygonum convolvulus (POLCO)
# testName: Post-emergence herbicidal action against POLCO
# Format: in vivo
# experimentalConditions: dosage 320 g/ha
Catalogue of Post-emergence action against POLCO in % readings, one per entry.
Unit % implied. Number only.

Please review the following examples before continuing.
compound=O=C(O)CSc1nn(-c2ccccn2)c(-c2cncc(F)c2)c1Cl measuredquantity="Post-emergence action against POLCO in %" unit=% recordedmeasurement=80
compound=C[C@@H](Oc1nn(-c2ccccn2)c(-c2ccc(Cl)nc2)c1Br)C(=O)O measuredquantity="Post-emergence action against POLCO in %" unit=% recordedmeasurement=80
compound=O=C(O)COc1nn(-c2ccccn2)c(-c2ccc(F)nc2)c1F measuredquantity="Post-emergence action against POLCO in %" unit=% recordedmeasurement=80
compound="COC(=O)C(C)OC(=O)C(C)Oc1nn(-c2ccccn2)c(-c2ccc(F)nc2)c1Cl (centres unmarked)" measuredquantity="Post-emergence action against POLCO in %" unit=% recordedmeasurement=80
compound=O=C(COc1nn(-c2ncccc2F)c(-c2ccc(F)nc2)c1C1CC1)OCC(F)(F)F measuredquantity="Post-emergence action against POLCO in %" unit=% recordedmeasurement=90

Measured Post-emergence action against POLCO in % of O=C(O)C1CCCN1C(=O)COc1nn(-c2ccccn2)c(-c2ccc(F)nc2)c1Br (centres unmarked) : 80

Quick note, Post-emergence action against POLCO in % for `COC(=O)CCOC(=O)[C@@H](C)Oc1nn(-c2ccccn2)c(-c2ccc(Cl)nc2)c1Cl` landed at 80

Per the record, `CCCOC(=O)COc1nn(-c2ncccc2F)c(-c2ccc(F)nc2)c1C1CC1` has Post-emergence action against POLCO in % of 90

----------
# key: entry, value: Pre-emergence action against PHBPU in %
# System: Pharbitis purpurea (PHBPU)
# testName: Pre-emergence herbicidal action against PHBPU
# Type: in vivo
# experimentalConditions: dosage 80 g/ha
# Text: Seeds of monocotyledonous and dicotyledonous weed plants and crop plants are placed in plastic or organic planting pots and covered with soil. […] After about 3 weeks, the effect of the preparations is scored visually in comparison with untreated controls as percentages. […]
State just the number; it will be interpreted in %.

Answered examples (5):
molecule=COC(=O)[C@@H](C)Oc1nn(-c2ccccn2)c(-c2cncc(F)c2)c1Br unit=% recordedmeasurement=80
molecule="COC(=O)C(C)NC(=O)[C@@H](C)Oc1nn(-c2ccccn2)c(-c2cncc(F)c2)c1Cl (some centres unmarked)" unit=% recordedmeasurement=80
molecule=COC(=O)[C@@H](C)COC(=O)COc1nn(-c2ccccn2)c(-c2cncc(F)c2)c1Br unit=% recordedmeasurement=90
molecule=O=C(O)COc1nn(-c2nc(F)ccc2F)c(-c2ccc(F)nc2)c1Cl unit=% recordedmeasurement=80
molecule=O=C(O)COc1nn(-c2nc(F)ccc2F)c(-c2cncc(F)c2)c1Cl unit=% recordedmeasurement=90

Data point: `COC(=O)[C@@H](C)Oc1nn(-c2ccccn2)c(-c2cncc(F)c2)c1Cl` ; Pre-emergence action against PHBPU in % = 90

Briefly, Pre-emergence action against PHBPU in % measured for `O=C(O)COc1nn(-c2ccccn2)c(-c2cncc(F)c2)c1Br` : 90

Measured Pre-emergence action against PHBPU in % of `C[C@@H](Oc1nn(-c2ncccc2F)c(-c2ccc(F)nc2)c1I)C(=O)O` : 80

What the record says about COC(=O)C(C)COC(=O)[C@@H](C)Oc1nn(-c2ccccn2)c(-c2cncc(F)c2)c1Cl (some centres unmarked) : Pre-emergence action against PHBPU in % is 80

Value of measured Pre-emergence action against PHBPU in % for the entry `COC(=O)COc1nn(-c2nc(F)ccc2F)c(-c2cncc(F)c2)c1C1CC1` : 80

So for `COCCOC(=O)COc1nn(-c2ccccn2)c(-c2ccc(F)nc2)c1Br` , the logged Pre-emergence action against PHBPU in % turned out to be 90

So for `C#CCOC(=O)COc1nn(-c2ccccn2)c(-c2ccc(F)nc2)c1Br` , the logged Pre-emergence action against PHBPU in % turned out to be 80

----------
# Test system: Viola tricolor (VIOTR)
# testName: Pre-emergence herbicidal action against VIOTR
# Assay type: in vivo
# experimentalConditions: 320 g/ha, Viola tricolor
measuredQuantity: Pre-emergence action against VIOTR in % (%)
Provide the reading as a plain figure in %.

Observe how each entry below is paired with its result.
compound=COC(=O)CNC(=O)[C@@H](C)Oc1nn(-c2ccccn2)c(-c2ccc(F)nc2)c1Cl measuredquantity="Pre-emergence action against VIOTR in %" recordedmeasurement=100
compound=C[C@@H](Oc1nn(-c2ccccn2)c(-c2cncnc2)c1Cl)C(=O)O measuredquantity="Pre-emergence action against VIOTR in %" recordedmeasurement=100
compound=COC(=O)[C@@H](C)Oc1nn(-c2ncccc2F)c(-c2ccc(F)nc2)c1C1CC1 measuredquantity="Pre-emergence action against VIOTR in %" recordedmeasurement=100
compound="COC(=O)C(C)NC(=O)[C@@H](C)Oc1nn(-c2ccccn2)c(-c2cncc(F)c2)c1Cl (some centres unmarked)" measuredquantity="Pre-emergence action against VIOTR in %" recordedmeasurement=100
compound="CC(NC(=O)[C@@H](C)Oc1nn(-c2ccccn2)c(-c2ccc(F)nc2)c1Cl)C(=O)O (some centres unmarked)" measuredquantity="Pre-emergence action against VIOTR in %" recordedmeasurement=100
compound="O=C(O)COc1nn(-c2ncccc2F)c(-c2ccc(F)nc2)c1Br [Example I-08]" measuredquantity="Pre-emergence action against VIOTR in %" recordedmeasurement=100
compound=C[C@@H](Oc1nn(-c2ncccc2F)c(-c2ccc(F)nc2)c1Br)C(=O)O measuredquantity="Pre-emergence action against VIOTR in %" recordedmeasurement=100

Switching to the query record.
Please fill in: Pre-emergence action against VIOTR in % reported for `O=C(O)COc1nn(-c2nc(F)ccc2F)c(-c2cncc(F)c2)c1Cl` = 100

----------
# System: Zea mays (ZEAMX)
# Format: in vivo
# experimentalConditions: crop plant compatibility, 80 g/ha, effect vs untreated controls
Reported Post-emergence action against ZEAMX in % values are given for each entry in this list.
Number first, unit second.

molecule="C[C@@H](Oc1nn(-c2ncccc2F)c(-c2ccc(F)nc2)c1Br)C(=O)O [Example I-10]" measuredquantity="Post-emergence action against ZEAMX in %" recordedmeasurement=0%

API: the following record is the query input.
For this molecule ( `C[C@@H](Oc1nn(-c2ccnc(Cl)c2)c(-c2ccc(F)nc2)c1Br)C(=O)O` ), measured Post-emergence action against ZEAMX in % is 20%

----------
# Test system: Abutilon theophrasti (ABUTH)
# testName: Pre-emergence herbicidal action against ABUTH
# Format: in vivo
# experimentalConditions: Dosage column 320 g/ha (title prints 3200 g/ha); scored visually after about 3 weeks; 100% = plants have died
Measured Pre-emergence action against ABUTH, listed per entry for reference.
Respond numerically; units are % and should not be typed.

Some solved cases for reference:
compound="COC(=O)C(C)COC(=O)[C@@H](C)Oc1nn(-c2ccccn2)c(-c2cncc(F)c2)c1Cl (some centres unmarked) [Example I-198]" recordedmeasurement=90
compound="C[C@@H](Oc1nn(-c2nc(F)ccc2F)c(-c2cncc(F)c2)c1Cl)C(=O)O [Example I-159]" recordedmeasurement=80
compound="COC(=O)[C@@H](C)Oc1nn(-c2nc(F)ccc2F)c(-c2cncc(F)c2)c1Cl [Example I-154]" recordedmeasurement=90
compound="CCOC(=O)CSc1nn(-c2ccccn2)c(-c2cncc(F)c2)c1Cl [Example I-183]" recordedmeasurement=80
compound="CCOC(=O)COc1nn(-c2nc(F)ccc2F)c(-c2cncc(F)c2)c1C1CC1 [Example I-149]" recordedmeasurement=80

// Pre-emergence action against ABUTH lookup, compound = O=C(O)COc1nn(-c2ccccn2)c(-c2cncc(F)c2)c1Br [Example I-84] , result: 80

Please fill in: Pre-emergence action against ABUTH reported for CCOC(=O)COc1nn(-c2nc(F)ccc2F)c(-c2ccc(F)nc2)c1Br [Example I-330] = 100

Kindly note the recorded Pre-emergence action against ABUTH for C[C@@H](Oc1nn(-c2ncccc2F)c(-c2ccc(F)nc2)c1C(F)(F)F)C(=O)O [Example I-317] , which is 90

----------
# System: Echinochloa crus-galli (ECHCG)
# testName: Post-emergence herbicidal action against ECHCG
# Format: in vivo
# experimentalConditions: dosage 320 g/ha
measuredQuantity: Post-emergence action against ECHCG in %

Consider the reported Post-emergence action against ECHCG in % for these molecules:
molecule=COC(=O)COc1nn(-c2nc(F)ccc2F)c(-c2cncc(F)c2)c1C1CC1 measuredquantity="Post-emergence action against ECHCG in %" recordedmeasurement=80%
molecule=Cc1cccnc1-n1nc(OCC(=O)O)c(Cl)c1-c1cncc(F)c1 measuredquantity="Post-emergence action against ECHCG in %" recordedmeasurement=90%

Short answer on Echinochloa crus-galli (ECHCG) for `COC(=O)COc1nn(-c2ncccc2Cl)c(-c2ccc(F)nc2)c1Br` , Post-emergence action against ECHCG in %: 90%

I looked up `CCOC(=O)[C@@H](C)Oc1nn(-c2nc(F)ccc2F)c(-c2cncc(F)c2)c1C1CC1` and its Post-emergence action against ECHCG in % for Echinochloa crus-galli (ECHCG) was 100%

Bench note, Echinochloa crus-galli (ECHCG): entry `C[C@@H](Oc1nn(-c2ncccc2F)c(-c2ccnc(F)c2)c1Br)C(=O)O` , its Post-emergence action against ECHCG in % = 80%
